- TARGET UNDER TEST: SARS-CoV-2 NSP3 macrodomain (Severe acute respiratory syndrome coronavirus 2, UniProt P0DTD1)
pIC50: −log10 of the molar value.
METRIC: pIC50

C#CC1OC(COP(=O)(O)OP(=O)(O)OCC2OC(n3cnc4c(N)ncnc43)C(O)C2O)C(O)C1O (stereo not shown) [Compound 5] :: 5.62
[N-]=[N+]=NC1OC(COP(=O)(O)OP(=O)(O)OCC2OC(n3cnc4c(N)ncnc43)C(O)C2O)C(O)C1OCc1ccccc1 (stereo not shown) [Compound 7] :: 4.10
CO[C@H]1O[C@H](COP(=O)(O)OP(=O)(O)OC[C@H]2O[C@@](C#N)(c3ccc4c(N)ncnn34)[C@H](O)[C@@H]2O)[C@@H](O)[C@H]1O [Compound 10, α-O-methyl-NDPr] :: 7.20
N#C[C@@]1(c2ccc3c(N)ncnn23)O[C@H](COP(=O)(O)OP(=O)(O)OC[C@H]2O[C@H](N=[N+]=[N-])[C@H](O)[C@@H]2O)[C@@H](O)[C@H]1O [Compound 11, α-N3-NDPr] :: 7.52
